Values from paper PMC4501006

- experiment_summary: In vivo biodistribution in normal ICR mice
- study_conditions: i.v., 2 min
measure: Biodistribution of radioactivity, heart (% injected dose per gram)

[18F]CCOc1ccc(COc2ccc(I)cc2)cc1 [[^18F]12a] ... 9.11
FCCOc1ccc(OCc2ccc([125I])cc2)cc1 [[^125I]7a] ... 9.70
FCCOc1ccc(COc2ccc([125I])cc2)cc1 [[^125I]12a] ... 6.61
[18F]CCOc1ccc(OCc2ccc(I)cc2)cc1 [[^18F]7a] ... 9.32

---

- experiment_summary: In vivo biodistribution in normal ICR mice
- study_conditions: i.v., 60 min
measure: Biodistribution of radioactivity, blood (% injected dose per gram)

[18F]CCOc1ccc(OCc2ccc(I)cc2)cc1 [[^18F]7a] ... 4.97

(P) FCCOc1ccc(COc2ccc([125I])cc2)cc1 [[^125I]12a]
(Q) [18F]CCOc1ccc(COc2ccc(I)cc2)cc1 [[^18F]12a]
(R) FCCOc1ccc(OCc2ccc([125I])cc2)cc1 [[^125I]7a]
Falling order of Biodistribution of radioactivity, blood, please. Quick reminder: the answer is the labels in the order asked.
Q, P, R
